Would you mind telling me the reported IC50 of each entry?
# TESTED_SYSTEM: histamine H3 receptor (hH3R) (Homo sapiens (Human))
# Sequence (Q9Y5N1 whole entry): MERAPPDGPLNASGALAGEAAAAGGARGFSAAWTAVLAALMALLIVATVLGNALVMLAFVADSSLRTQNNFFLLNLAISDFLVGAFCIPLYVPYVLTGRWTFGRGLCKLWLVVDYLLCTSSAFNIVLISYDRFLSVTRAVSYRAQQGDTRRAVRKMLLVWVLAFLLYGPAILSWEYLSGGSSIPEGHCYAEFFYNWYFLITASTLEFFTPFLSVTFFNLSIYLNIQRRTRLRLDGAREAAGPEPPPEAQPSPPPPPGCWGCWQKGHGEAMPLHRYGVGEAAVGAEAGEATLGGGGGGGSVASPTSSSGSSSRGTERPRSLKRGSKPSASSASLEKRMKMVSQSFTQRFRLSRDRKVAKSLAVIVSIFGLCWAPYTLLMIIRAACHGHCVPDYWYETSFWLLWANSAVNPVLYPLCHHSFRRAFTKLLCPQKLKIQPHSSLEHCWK
# PROCEDURE_SUMMARY: [35S]-GTPγS binding assay, antagonist mode, HEK293/Ga15/hH3R membranes
# Format: biochemical
# EXPERIMENTAL_CONTEXT: agonist R-alpha-methylhistamine 1 μM, 10 points, 3-fold dilution from 1 μM

Reported IC50, compound Cc1nc2ccc(S(F)(F)(F)(F)F)cc2c(=O)n1-c1ccc(OC2CCN(C(=O)C3CCCCC3)CC2)cc1 : ____ > 1000 nM

What value of IC50 has been reported for the following compound? Cc1nc2ccc(S(F)(F)(F)(F)F)cc2c(=O)n1-c1ccc(OCCCN2CCC(C)C2)cc1 (stereo not shown) 3.44 nM

Value lookup for IC50; key = COc1cc(OC2CCN(C(=O)C3CCOCC3)CC2)ccc1-n1c(C)nc2ccc(S(F)(F)(F)(F)F)cc2c1=O 242 nM

What does the data say about its IC50? Entry: Cc1nc2ccc(S(F)(F)(F)(F)F)cc2c(=O)n1-c1ccc(OC2CCN(C3CCCC3)CC2)cc1 116 nM

Query (compound): Cc1nc2ccc(S(F)(F)(F)(F)F)cc2c(=O)n1-c1ccc(OC2CCN(C(=O)C3CCOCC3)CC2)cc1 ; field requested: IC50 > 1000 nM

Quick one: IC50 for COc1cc(OCCCN2CCCC2)ccc1-n1c(C)nc2ccc(S(F)(F)(F)(F)F)cc2c1=O ? 5.36 nM

For Cc1nc2ccc(S(F)(F)(F)(F)F)cc2c(=O)n1-c1ccc(OC2CCN(C(=O)C3CCN(C)CC3)CC2)cc1 , what is its reported IC50? 814 nM

* * *

Assignment: determine reported pIC50 for the given compounds.
# TESTED_SYSTEM: histamine H3 receptor (hH3R) (Homo sapiens (Human))
# PROCEDURE_SUMMARY: [35S]-GTPγS binding assay, inverse agonist mode, HEK293/Ga15/hH3R membranes
# Assay type: biochemical
# EXPERIMENTAL_CONTEXT: no agonist, 10 points, 3-fold dilution from 1 μM
Please keep in mind that pIC50 is minus log10 of the molar concentration; only the number is needed.

What does the data say about its pIC50? Entry: Cc1nc2ccc(S(F)(F)(F)(F)F)cc2c(=O)n1-c1ccc(OC2CCN(C(=O)C3CCOCC3)CC2)cc1 6.54

Item COc1cc(OC2CCN(C(=O)C3CCOCC3)CC2)ccc1-n1c(C)nc2ccc(S(F)(F)(F)(F)F)cc2c1=O has what recorded pIC50? 6.64

Need pIC50 of COc1cc(OCCCN2CCCC2)ccc1-n1c(C)nc2ccc(S(F)(F)(F)(F)F)cc2c1=O , thanks. 8.26

Give its pIC50 value. Item: Cc1nc2ccc(S(F)(F)(F)(F)F)cc2c(=O)n1-c1ccc(OC2CCN(C3CCCC3)CC2)cc1 6.76

Using the record for Cc1nc2ccc(S(F)(F)(F)(F)F)cc2c(=O)n1-c1ccc(OC2CCN(C(=O)C3CCN(C)CC3)CC2)cc1 , report its pIC50. 7.30

# get_value(readout='pIC50', item= Cc1nc2ccc(S(F)(F)(F)(F)F)cc2c(=O)n1-c1ccc(OCCCN2CCC(C)C2)cc1 (stereo not shown) ) 7.98
